So I've got a bunch of compounds here, and I need their growth values.
- Tested on: OVCAR-8 ovarian
- EXPERIMENT SUMMARY: NCI-60 one-dose screen, 48 h (100 = growth as untreated, 0 = no growth, -100 = all killed)
- MEASUREMENT SETUP: 10 µM
This is part of a sample that, as a whole, favours compounds with a hit. Of some 83,000 tested, about 20% had one in any assay. The source made the active and inactive calls. How the source made its calls: active means growth percent below 10; inactive means the rest.

[in] Identify measured growth associated with "Nc1c(C(=O)NC2CCCCC2)sc2nc3c(cc12)C(=O)CCC3"
[out] 101% (inactive)

[in] Identify growth associated with the compound "C/C=C\COc1cc(C)c(Cl)cc1Cl"
[out] 99.4% (inactive)

[in] Return value of growth for input "O=C(COCc1c(-c2ccccc2)no[n+]1[O-])Nc1nc(-c2ccc(Cl)cc2)cs1" , no commentary.
[out] 101% (inactive)

[in] Dear colleague, please send me the reported growth for "c1ccc(CNc2nc(Nc3ccc(-c4nc5ccccc5[nH]4)cc3)c3cn[nH]c3n2)cc1" when you can.
[out] -12.5% (active)

[in] Determine from records and report growth for "Fc1cc(-c2ncc(-c3cc(F)c(F)c(F)c3)c(NC3CCCCCC3)n2)cc(F)c1F"
[out] 102% (inactive)

[in] For "COc1ccc(C(=O)/C=C/c2cc(-c3ccc4c(c3)OCO4)n[nH]2)cc1OC" , write its growth.
[out] 47.4% (inactive)

[in] Dear colleague, please send me the reported growth for "C=C[C@]1(C)C=C2C(=O)[C@@]3(O)OC(=O)[C@@]4(CCCC(C)(C)[C@H]34)[C@@]2(O)CC1" when you can.
[out] -56.8% (active)

[in] Supply recorded growth for "C=CCNC(=S)NN" here.
[out] 71.2% (inactive)

[in] Let me know recorded growth for "CCN(CC)c1ccc(/C=C/C2=[N+](C)c3ccccc3C2(C)C)c(C)c1" , thanks.
[out] 8.1% (active)

[in] Please indicate growth recorded for "CCCc1c(CC)c(=N)c2ccccc2n1C"
[out] 76.1% (inactive)

[in] Could you please provide reported growth for "CCOC(=O)c1cc2c(n1Cc1cccc(OC)c1)-c1oncc1CC2" ? Thanks!
[out] 41.7% (inactive)

[in] Identify the reported growth for the following entry. O=c1[nH]c(=O)n(C2C[C@@H](O)[C@@H](CO)O2)cc1F (stereo partly drawn)
[out] 30.2% (inactive)

[in] Entry "COc1ccc(COC(=O)CC(C)C)cc1" needs its growth filled in; supply it.
[out] 96.1% (inactive)

[in] Identify measured growth corresponding to "C[N+]1=C(/C=C/c2ccc(I)cc2)C(C)(C)c2ccccc21"
[out] 67.5% (inactive)

[in] Report growth for CCCCOCC(=O)NC(NP(=O)(N(C)C)N(C)C)C(Cl)(Cl)Cl (stereo not drawn)
[out] 62.8% (inactive)

[in] Identify measured growth associated with "CCN1CCN(c2ccc(Nc3ncnc4c3nnn4CCc3cc(OC)cc(OC)c3)cc2)CC1"
[out] 87.5% (inactive)

[in] Determine from records and report growth for "NC(=O)c1ccc(Br)o1"
[out] 108% (inactive)

[in] Give me measured growth, please, for this compound: "COc1ccccc1CNCCCN1C(=O)c2ccc3c4c(ccc(c24)C1=O)C(=O)N(CCCNCCNCCCN)C3=O"
[out] 12.4% (inactive)

[in] Give a short answer stating reported growth for Nc1nc2c(nnn2C2CC(O)C(CO)O2)c(=O)[nH]1 (stereo not drawn) .
[out] 38.4% (inactive)

[in] Give the reported growth for this compound. "O=C(CCCC(=O)N/N=C/c1cc(Cl)ccc1O)N/N=C\c1cc(Cl)ccc1O"
[out] 20.3% (inactive)

[in] Answer with reported growth of "CCN(CC)CCCOC(=O)Nc1ccccc1Cl"
[out] 111% (inactive)

[in] Please list growth recorded for the compound "O=C(NCCc1nccs1)c1cnc2c(S)cccc2c1"
[out] 29.3% (inactive)

[in] Give the value of growth reported for the following: "CCOC(=O)c1sc(Nc2ncccn2)nc1-c1ccccn1"
[out] 85.7% (inactive)

Data origin, for the record: PubChem BioAssay (NCI)
